Test system: CAF#2 (primary prostate cancer-associated fibroblasts of iCAF-like type)
Assay: drug sensitivity score (DSS2, normalised partial AUC of dose-response, 72 h CellTiter-Glo viability) (DSS (dimensionless)); higher = more sensitive (stronger growth inhibition / cytotoxicity); extreme values may be limits of the assay
Endpoint Name: drug sensitivity score
// response body must contain only the number

Give the reported drug sensitivity score for this compound. CN(C)C(=N)NC(=N)N [Metformin] (tested concentration range 10-100000 nM)
0

Using the record for CCc1c2c(nc3ccc(O)cc13)-c1cc3c(c(=O)n1C2)COC(=O)[C@]3(O)CC [SN-38] (tested concentration range 1-10000 nM) , state its measured drug sensitivity score.
25.5

Report measured drug sensitivity score; entry is O=c1[nH]c(C2CCCN2)nc2c1oc1ccc(Cl)cc12 (configuration not stated) (tested concentration range 1-10000 nM)
0

Return reported drug sensitivity score. Input compound: Cc1ccc(Nc2nccc(N(C)c3ccc4c(C)n(C)nc4c3)n2)cc1S(N)(=O)=O [Pazopanib] (tested concentration range 1-10000 nM)
6.7

Give reported drug sensitivity score value for C[C@@H](Oc1cc(-c2cnn(C3CCNCC3)c2)cnc1N)c1c(Cl)ccc(F)c1Cl [Crizotinib] (tested concentration range 0.1-1000 nM)
1.4

Fill in drug sensitivity score for record Cn1cc(-c2ccc(F)c(C(F)(F)F)c2)nc1C1CCN(c2ncnc3[nH]ncc23)CC1 (tested concentration range 1-10000 nM)
1

Give recorded drug sensitivity score. Cc1cc(Nc2cc(N3CCN(C)CC3)nc(Sc3ccc(NC(=O)C4CC4)cc3)n2)n[nH]1 [Tozasertib] (tested concentration range 1-10000 nM)
8.4

Provide drug sensitivity score value for the following compound: CNC(=O)c1ccc(-c2cnc3ncc(Cc4ccc5ncccc5c4)n3n2)cc1F [Capmatinib] (tested concentration range 0.1-1000 nM)
3.1

Please supply the value of reported drug sensitivity score for the item COc1cc2ncnc(Nc3ccc(F)c(Cl)c3)c2cc1OCCCN1CCOCC1 [Gefitinib] (tested concentration range 1-10000 nM)
2

Name the recorded drug sensitivity score of the compound listed here: O=C(c1cc(Cc2n[nH]c(=O)c3ccccc23)ccc1F)N1CCN(C(=O)C2CC2)CC1 [Olaparib] (tested concentration range 1-10000 nM)
4.7

Retrieve drug sensitivity score measured for COc1cc([C@@H]2c3cc4c(cc3[C@@H](O[C@@H]3O[C@@H]5CO[C@@H](C)O[C@H]5[C@H](O)[C@H]3O)[C@H]3COC(=O)[C@H]23)OCO4)cc(OC)c1O [Etoposide] (tested concentration range 1-10000 nM) and print it.
5.9

Dear colleague, please send me the reported drug sensitivity score for S=c1[nH]cnc2nc[nH]c12 [Mercaptopurine] (tested concentration range 1-10000 nM) when you can.
0.1

These measurements were taken from the supplement of paper PMC12592484.
